- Measurement Target: Early growth response protein 1 (Homo sapiens)
- Assay: Disruption of EGR-1-DNA binding in human HaCaT cell nuclear extract at 50 uM in the presence of biotin-EBS oligonucleotide probe (5'-CAAAAAGGAGGAAGGTGAGGGAA-biotin-3') and poly(dI-dC) by EMSA analysis relative to control
- Assay type: subcellular
Quantity Name: Activity (%)

Before answering, review these 5 worked examples.
COc1ccc(C2CC(c3ccc4ccccc4c3O)=NN2C(=S)Nc2ccc(OC)cc2OC)cc1 (centres undefined)
64.2
COc1cccc(O)c1C1=NN(C(=S)Nc2ccccc2)C(c2ccc(OC)c3ccccc23)C1 (centres undefined)
64
COc1ccc(NC(=S)N2N=C(c3ccc4ccccc4c3O)CC2c2cccc(OC)c2OC)c(OC)c1 (centres undefined)
67.8
COc1ccc(NC(=S)N2N=C(c3c(O)cccc3OC)CC2c2cccc3ccccc23)cc1 (centres undefined)
54
COc1cc(O)c(C2=NN(C(=S)Nc3ccccc3)C(c3cccc4ccccc34)C2)cc1OC (centres undefined)
53.6

a: COc1ccccc1NC(=S)N1N=C(c2cc(OC)c(OC)cc2O)CC1c1cccc2ccccc12 (centres undefined)
b: COc1ccc(NC(=S)N2N=C(c3ccc4ccccc4c3O)CC2c2c(OC)cc(OC)cc2OC)c(OC)c1 (racemic)
c: COc1cccc(NC(=S)N2N=C(c3c(O)cccc3OC)CC2c2cccc3ccccc23)c1 (centres undefined)
INPUT: Rank the items in ascending order with respect to Activity. List the labels, following the order given in the request.
OUTPUT: c, a, b
(c: 36.4%, a: 53.3%, b: 82.2%)
